src = ChEMBL document CHEMBL2429826

- test_summary: Apparent permeability of the compound in pig LLC-PK1 cells
readout_name: Papp
Answers without a unit are incomplete; give the number and then its unit.

Consider the following illustrative entries.
{"molecule": "C[C@@H](O)[C@H]1C(=O)N2C(C(=O)O)=C(S[C@@H]3CN[C@H](C(=O)Nc4cccc(C(=O)O)c4)C3)[C@H](C)[C@H]12", "Papp": "0.5 ×10⁻⁶ cm/s"}
{"molecule": "C[C@@H](O)[C@H]1C(=O)N2C(C(=O)O)=C(SC3CN(C4=NCCS4)C3)[C@H](C)[C@H]12", "Papp": "0.7 ×10⁻⁶ cm/s"}

For the next question, use this molecule.
Problem: Which Papp value belongs to CCOC(=O)C1=C(S[C@@H]2CN[C@H](C(=O)Nc3cccc(C(=O)OCC)c3)C2)[C@H](C)[C@@H]2[C@@H]([C@@H](C)O)C(=O)N12 ?
Solution: 13 ×10⁻⁶ cm/s

###

- test_summary: Metabolic stability in monkey plasma assessed as compound remaining at 50 uM after 60 mins by LC-MS/MS analysis
- Type: ADME, cell-free, Macaca mulatta
- reported_conditions: rhesus monkey, read-out: Stability
Listed next: entries and their corresponding remaining at 1 h, 50 µM.
Quick note: give the figure in %, leave out the unit.

{"compound": "C[C@@H](O)[C@H]1C(=O)N2C3=C(S[C@@H]4CN[C@@H](C4)C(=O)Nc4cccc(c4)C(=O)OCCCOC3=O)[C@H](C)[C@H]12", "readout_name": "remaining at 1 h, 50 µM", "readout_value": 49}

Problem: Which remaining at 1 h, 50 µM value belongs to CCOC(=O)C1=C(S[C@@H]2CN[C@H](C(=O)Nc3cccc(C(=O)OCC)c3)C2)[C@H](C)[C@@H]2[C@@H]([C@@H](C)O)C(=O)N12 ?
Solution: 77

Problem: Which remaining at 1 h, 50 µM value belongs to C[C@@H](O)[C@H]1C(=O)N2C(C(=O)OCOC(=O)C(C)(C)C)=C(SC3CN(C4=NCCS4)C3)[C@H](C)[C@H]12 [TEBIPENEM PIVOXIL] ?
Solution: 0

Problem: Which remaining at 1 h, 50 µM value belongs to Cc1oc(=O)oc1COC(=O)C1=C(S[C@@H]2CN[C@H](C(=O)Nc3cccc(C(=O)OCc4oc(=O)oc4C)c3)C2)[C@H](C)[C@@H]2[C@@H]([C@@H](C)O)C(=O)N12 ?
Solution: 2

###

- test_summary: Oral bioavailability in Sprague-Dawley rat at 10 mg/kg
- Type: ADME, organism-based
- reported_conditions: in vivo
readout_name: bioavailability (%)
Quick note: give the figure in %, leave out the unit.

Problem: Which bioavailability value belongs to C[C@@H](O)[C@H]1C(=O)N2C(C(=O)O)=C(S[C@@H]3CN[C@H](C(=O)Nc4cccc(C(=O)O)c4)C3)[C@H](C)[C@H]12 ?
Solution: 0.53

###

- test_summary: Metabolic stability in rat plasma assessed as compound remaining at 50 uM after 60 mins by LC-MS/MS analysis
- Format: ADME, cell-free
- reported_conditions: read-out: Stability
readout_name: remaining at 1 h, 50 µM
Answers without a unit are incomplete; give the number and then its unit.

Consider the following illustrative entries.
{"molecule": "C[C@@H](O)[C@H]1C(=O)N2C(C(=O)OCOC(=O)C(C)(C)C)=C(SC3CN(C4=NCCS4)C3)[C@H](C)[C@H]12 [TEBIPENEM PIVOXIL]", "readout_value": "0%"}
{"molecule": "CCOC(=O)C1=C(S[C@@H]2CN[C@H](C(=O)Nc3cccc(C(=O)OCC)c3)C2)[C@H](C)[C@@H]2[C@@H]([C@@H](C)O)C(=O)N12", "readout_value": "0%"}
{"molecule": "Cc1oc(=O)oc1COC(=O)C1=C(S[C@@H]2CN[C@H](C(=O)Nc3cccc(C(=O)OCc4oc(=O)oc4C)c3)C2)[C@H](C)[C@@H]2[C@@H]([C@@H](C)O)C(=O)N12", "readout_value": "1%"}
{"molecule": "C[C@@H](O)[C@H]1C(=O)N2C(C(=O)OCOC(=O)C(C)(C)C)=C(S[C@@H]3CN[C@H](C(=O)Nc4cccc(C(=O)OCOC(=O)C(C)(C)C)c4)C3)[C@H](C)[C@H]12", "readout_value": "2%"}

Problem: Which remaining at 1 h, 50 µM value belongs to C[C@@H](O)[C@H]1C(=O)N2C3=C(S[C@@H]4CN[C@@H](C4)C(=O)Nc4cccc(c4)C(=O)OCCCOC3=O)[C@H](C)[C@H]12 ?
Solution: 0%

###

- test_summary: AUC (0 to 8 hrs) in Sprague-Dawley rat at 10 mg/kg, ID administered as infusion
- Format: ADME, organism-based
- Set-up: time < 8 hr, dose 10 mg/kg, route intraduodenal
- reported_conditions: plasma
readout_name: AUC(0-t) at 8 h (µM·h)
Quick note: give the figure in µM·h, leave out the unit.

Problem: Which AUC(0-t) at 8 h value belongs to C[C@@H](O)[C@H]1C(=O)N2C(C(=O)O)=C(S[C@@H]3CN[C@H](C(=O)Nc4cccc(C(=O)O)c4)C3)[C@H](C)[C@H]12 ?
Solution: 0.48

###

- test_summary: Metabolic stability in dog plasma assessed as compound remaining at 50 uM after 60 mins by LC-MS/MS analysis
- Type: ADME, cell-free, Canis lupus familiaris
- reported_conditions: read-out: Stability
readout_name: remaining at 1 h, 50 µM
Answers without a unit are incomplete; give the number and then its unit.

Consider the following illustrative entries.
{"molecule": "C[C@@H](O)[C@H]1C(=O)N2C3=C(S[C@@H]4CN[C@@H](C4)C(=O)Nc4cccc(c4)C(=O)OCCCOC3=O)[C@H](C)[C@H]12", "remaining at 1 h, 50 µM": "79%"}
{"molecule": "CCOC(=O)C1=C(S[C@@H]2CN[C@H](C(=O)Nc3cccc(C(=O)OCC)c3)C2)[C@H](C)[C@@H]2[C@@H]([C@@H](C)O)C(=O)N12", "remaining at 1 h, 50 µM": "75%"}
{"molecule": "C[C@@H](O)[C@H]1C(=O)N2C(C(=O)OCOC(=O)C(C)(C)C)=C(SC3CN(C4=NCCS4)C3)[C@H](C)[C@H]12", "remaining at 1 h, 50 µM": "25%"}
{"molecule": "Cc1oc(=O)oc1COC(=O)C1=C(S[C@@H]2CN[C@H](C(=O)Nc3cccc(C(=O)OCc4oc(=O)oc4C)c3)C2)[C@H](C)[C@@H]2[C@@H]([C@@H](C)O)C(=O)N12", "remaining at 1 h, 50 µM": "3%"}

Problem: Which remaining at 1 h, 50 µM value belongs to C[C@@H](O)[C@H]1C(=O)N2C(C(=O)OCOC(=O)C(C)(C)C)=C(S[C@@H]3CN[C@H](C(=O)Nc4cccc(C(=O)OCOC(=O)C(C)(C)C)c4)C3)[C@H](C)[C@H]12 ?
Solution: 37%

###

- test_summary: AUC (0 to 8 hrs) in Sprague-Dawley rat at 1 mg/kg, iv
- Assay type: ADME, organism-based
- Parameters: time < 8 hr, dose 1 mg/kg, route intravenous
- reported_conditions: plasma
readout_name: AUC(0-t) at 8 h (µM·h)
Quick note: give the figure in µM·h, leave out the unit.

Problem: Which AUC(0-t) at 8 h value belongs to C[C@@H](O)[C@H]1C(=O)N2C(C(=O)O)=C(S[C@@H]3CN[C@H](C(=O)Nc4cccc(C(=O)O)c4)C3)[C@H](C)[C@H]12 ?
Solution: 7.84

###

- test_summary: AUC (0 to 8 hrs) in Beagle dog at 1 mg/kg, iv
- Type: ADME, organism-based, Canis lupus familiaris
- Set-up: time < 8 hr, dose 1 mg/kg, route intravenous
- reported_conditions: plasma
readout_name: AUC(0-t) at 8 h (µM·h)
Quick note: give the figure in µM·h, leave out the unit.

Problem: Which AUC(0-t) at 8 h value belongs to C[C@@H](O)[C@H]1C(=O)N2C(C(=O)O)=C(S[C@@H]3CN[C@H](C(=O)Nc4cccc(C(=O)O)c4)C3)[C@H](C)[C@H]12 ?
Solution: 8.9

###

- test_summary: Metabolic stability in human plasma assessed as compound remaining at 50 uM after 60 mins by LC-MS/MS analysis
- Assay type: ADME, cell-free
- reported_conditions: read-out: Stability
readout_name: remaining at 1 h, 50 µM
Answers without a unit are incomplete; give the number and then its unit.

Consider the following illustrative entries.
{"compound": "C[C@@H](O)[C@H]1C(=O)N2C(C(=O)OCOC(=O)C(C)(C)C)=C(S[C@@H]3CN[C@H](C(=O)Nc4cccc(C(=O)OCOC(=O)C(C)(C)C)c4)C3)[C@H](C)[C@H]12", "remaining at 1 h, 50 µM": "36%"}
{"compound": "C[C@@H](O)[C@H]1C(=O)N2C(C(=O)OCOC(=O)C(C)(C)C)=C(SC3CN(C4=NCCS4)C3)[C@H](C)[C@H]12 [TEBIPENEM PIVOXIL]", "remaining at 1 h, 50 µM": "0%"}
{"compound": "C[C@@H](O)[C@H]1C(=O)N2C3=C(S[C@@H]4CN[C@@H](C4)C(=O)Nc4cccc(c4)C(=O)OCCCOC3=O)[C@H](C)[C@H]12", "remaining at 1 h, 50 µM": "17%"}

Problem: Which remaining at 1 h, 50 µM value belongs to Cc1oc(=O)oc1COC(=O)C1=C(S[C@@H]2CN[C@H](C(=O)Nc3cccc(C(=O)OCc4oc(=O)oc4C)c3)C2)[C@H](C)[C@@H]2[C@@H]([C@@H](C)O)C(=O)N12 ?
Solution: 1%

Problem: Which remaining at 1 h, 50 µM value belongs to CCOC(=O)C1=C(S[C@@H]2CN[C@H](C(=O)Nc3cccc(C(=O)OCC)c3)C2)[C@H](C)[C@@H]2[C@@H]([C@@H](C)O)C(=O)N12 ?
Solution: 5%
